target: Cannabinoid receptor 1 (Homo sapiens); experiment: Antagonist activity at human CB1 receptor expressed in CHO-RD-HGA16 cells assessed as inhibition of CP55940-induced calcium mobilization incubated for 15 mins prior to CP55940 addition by FLIPR assay
Sequence (P21554 whole entry): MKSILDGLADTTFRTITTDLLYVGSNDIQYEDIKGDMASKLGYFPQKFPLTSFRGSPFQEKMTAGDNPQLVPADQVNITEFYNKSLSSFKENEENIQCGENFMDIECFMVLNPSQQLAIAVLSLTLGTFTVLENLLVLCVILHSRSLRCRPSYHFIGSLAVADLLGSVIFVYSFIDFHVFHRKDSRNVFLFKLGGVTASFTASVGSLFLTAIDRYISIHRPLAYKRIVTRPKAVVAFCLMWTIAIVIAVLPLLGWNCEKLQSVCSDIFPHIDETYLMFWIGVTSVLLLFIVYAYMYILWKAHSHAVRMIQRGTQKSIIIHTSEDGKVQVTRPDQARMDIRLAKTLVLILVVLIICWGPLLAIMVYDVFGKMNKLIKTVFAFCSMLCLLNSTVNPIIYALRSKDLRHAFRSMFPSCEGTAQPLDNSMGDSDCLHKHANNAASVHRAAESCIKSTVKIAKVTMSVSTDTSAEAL
attribute.measured: IC50 (nM)

CCc1c(C(=O)NCCc2ccc(Cl)cc2)[nH]c2ccc(Cl)cc12 = 2500

I = CCc1c(C(=O)NCCc2ccc(OC)cc2)[nH]c2ccc(Cl)cc12
II = CCN(CC)c1ccc(CCNC(=O)c2[nH]c3ccc(F)cc3c2C)cc1
# input Sorting by IC50 in descending order, would I or II appear first? Could you answer with the label of the item you picked?
# output I
(I: 2560 nM, II: 151 nM)

* * *

target: UniProtKB P34972; assay: Antagonist activity at human CB2 receptor expressed in CHO-RD-HGA16 cells assessed as inhibition of CP55940-induced calcium mobilization at 10 uM incubated for 15 mins prior to CP55940 addition by FLIPR assay; assay type: functional, cell-based
attribute.measured: inhibition (%)

Consider the following illustrative entries.
CCc1c(C(=O)NCCc2ccc3c(c2)OCO3)[nH]c2ccc(Cl)cc12 = 25.8
CCc1c(C(=O)NCCc2ccc(Cl)c(Cl)c2)[nH]c2ccc(Cl)cc12 = -3.2
CCc1c(C(=O)NCCc2cccc(O)c2)[nH]c2ccc(Cl)cc12 = -0.1
CCCC(=O)Nc1ccc(CCNC(=O)c2[nH]c3ccc(Cl)cc3c2CC)cc1 = 43
CCc1c(C(=O)NCCc2cccc(OC)c2)[nH]c2ccc(Cl)cc12 = -6

I = CCc1c(C(=O)NCCc2ccc(OC)c(O)c2)[nH]c2ccc(Cl)cc12
II = CCc1c(C(=O)NCCc2cccc(N(C)C)c2)[nH]c2ccc(Cl)cc12
# input // which entry reports the smaller inhibition, I or II ? Label of pick, please.
# output I

* * *

target: Cannabinoid receptor 2 (Homo sapiens) (UniProt P34972); assay: Antagonist activity at human CB2 receptor expressed in CHO-RD-HGA16 cells assessed as inhibition of CP55940-induced calcium mobilization at 10 uM incubated for 15 mins prior to CP55940 addition by FLIPR assay; type: functional, cell-based
Sequence (P34972 whole entry): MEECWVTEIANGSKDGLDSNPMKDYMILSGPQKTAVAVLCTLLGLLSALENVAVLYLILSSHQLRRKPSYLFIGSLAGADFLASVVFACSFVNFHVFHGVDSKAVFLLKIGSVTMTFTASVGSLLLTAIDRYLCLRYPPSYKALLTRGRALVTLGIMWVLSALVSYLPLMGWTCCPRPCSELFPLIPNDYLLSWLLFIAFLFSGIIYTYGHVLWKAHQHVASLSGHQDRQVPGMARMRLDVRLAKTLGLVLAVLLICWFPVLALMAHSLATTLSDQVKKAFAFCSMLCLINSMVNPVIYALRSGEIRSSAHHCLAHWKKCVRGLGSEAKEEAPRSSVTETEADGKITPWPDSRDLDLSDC
attribute.measured: inhibition (%)

CCc1c(C(=O)NCCc2cccc(Cl)c2)[nH]c2ccc(Cl)cc12 = 24.8
CCc1c(C(=O)NCCc2ccccc2Cl)[nH]c2ccc(Cl)cc12 = 28.5
CCc1c(C(=O)NCCc2ccccc2)[nH]c2ccc(Cl)cc12 = -6.2
CCc1c(C(=O)NC2CCN(Cc3ccccc3)C2)[nH]c2ccc(Cl)cc12 (stereo not given) = -6.2
CCCCCC(=O)Nc1ccc(CCNC(=O)c2[nH]c3ccc(Cl)cc3c2CC)cc1 = 1

P = CCc1c(C(=O)NCCc2ccc(NC(C)=O)cc2)[nH]c2ccc(Cl)cc12
Q = Cc1c(C(=O)NCCc2ccc(N3CCCCC3)cc2)[nH]c2ccc(F)cc12
R = CCc1c(C(=O)NCCc2ccc(Cl)cc2)[nH]c2ccc(Cl)cc12
S = O=C(NCCc1ccc(N2CCCCC2)cc1)c1cc2cc(F)ccc2[nH]1
T = CCN(CC)c1ccc(CCNC(=O)c2cc3cc(Cl)ccc3[nH]2)cc1
# input Give the ascending ranking of the items by reported inhibition. Give the labels in the order requested.
# output Q, R, P, T, S
